B1: Osa-1-4 twister ribozyme (parent)
chain: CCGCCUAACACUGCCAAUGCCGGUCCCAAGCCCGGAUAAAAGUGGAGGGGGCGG

# Variants of: B1
# Test Method Notes: self-cleavage, relative activity (ratio to wild type); higher = more cleavage; co-transcriptional
Decision: self-cleavage >= 0.08 yields yes (1), all other cases yield no (0).

1) A16G U43C: yes (1)
2) A41G G54A: yes (1)
3) A16U C31G: no (0)
4) G49U U24A: no (0)
5) A10G G42A: yes (1)

Query: Test whether the variant G35U G51A records self-cleavage of 0.08 or higher.
Response: yes (1)

Query: Check if self-cleavage >= 0.08 (inclusive). Item: G19U G47U
Response: no (0)

Query: Does self-cleavage meet or surpass 0.08 for A36U G44A ?
Response: yes (1)

Query: Textbook exercise: given the entry C11G G54U , state whether its self-cleavage is greater than or equal to 0.08.
Response: yes (1)

Query: Could you tell me if the measured self-cleavage of A36C G44U reaches 0.08 or more?
Response: yes (1)

Query: Check this variant for self-cleavage at or above 0.08: C11A G45C
Response: no (0)

Query: Reported self-cleavage at or above 0.08? C25U G48A
Response: no (0)

Query: Please check the record A28U U24C and state if its self-cleavage is at or above 0.08.
Response: yes (1)

Query: Item A41U C31U with self-cleavage of 0.08 or above?
Response: yes (1)

Query: Determine whether measured self-cleavage meets or exceeds 0.08 for A28C C25G
Response: yes (1)

Query: Check this variant for self-cleavage at or above 0.08: A8C G50A
Response: no (0)

Query: Assess whether reported self-cleavage for A36G G30A sits at 0.08 or higher.
Response: no (0)

Query: Form field: self-cleavage at least 0.08? Entry: C9G G51C
Response: no (0)

The reported numbers originate from the RNAGym collection of RNA variant scans (doi:10.1002/anie.201605470).
